Assayed System: T1, hGARP-proTGFβ1 (human, UniProt Q14392 18-627; P01137 30-390, limits assumed)
T1 construct: LLC as m1; Same id used for the cell-surface complex in reporter assays; also called human GARP-proTGFβ1 complex; GARP-ProTGFb1
T1 sequence (Q14392 18-627 limits assumed, chain 1 of 2): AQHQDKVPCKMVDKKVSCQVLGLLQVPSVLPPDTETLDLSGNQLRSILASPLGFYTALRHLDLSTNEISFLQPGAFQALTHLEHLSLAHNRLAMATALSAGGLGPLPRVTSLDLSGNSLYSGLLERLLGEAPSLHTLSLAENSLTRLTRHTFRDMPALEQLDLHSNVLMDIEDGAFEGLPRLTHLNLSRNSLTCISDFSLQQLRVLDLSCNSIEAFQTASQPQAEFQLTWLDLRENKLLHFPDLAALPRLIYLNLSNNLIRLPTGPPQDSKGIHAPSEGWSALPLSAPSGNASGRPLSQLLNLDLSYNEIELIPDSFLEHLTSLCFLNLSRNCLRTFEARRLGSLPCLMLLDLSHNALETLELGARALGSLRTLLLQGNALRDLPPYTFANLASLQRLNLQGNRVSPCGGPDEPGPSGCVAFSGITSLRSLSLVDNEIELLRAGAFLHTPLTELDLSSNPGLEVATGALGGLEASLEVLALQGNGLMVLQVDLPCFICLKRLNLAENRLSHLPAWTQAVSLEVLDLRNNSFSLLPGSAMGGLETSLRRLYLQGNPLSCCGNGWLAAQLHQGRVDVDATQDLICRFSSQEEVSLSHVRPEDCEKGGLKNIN
T1 sequence (P01137 30-390 limits assumed, chain 2 of 2): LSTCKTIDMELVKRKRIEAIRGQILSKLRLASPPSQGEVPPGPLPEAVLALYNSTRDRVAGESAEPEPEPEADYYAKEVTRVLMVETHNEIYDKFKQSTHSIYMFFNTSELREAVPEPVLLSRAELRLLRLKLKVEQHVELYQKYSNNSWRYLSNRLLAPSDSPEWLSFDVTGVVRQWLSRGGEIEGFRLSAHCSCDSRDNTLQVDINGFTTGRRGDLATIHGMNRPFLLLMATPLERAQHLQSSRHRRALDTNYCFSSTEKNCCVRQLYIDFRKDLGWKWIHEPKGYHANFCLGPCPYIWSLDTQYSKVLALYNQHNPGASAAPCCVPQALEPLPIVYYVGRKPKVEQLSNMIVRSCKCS
Assay Text: MSD-SET, hIgG4
Quick reference for pKd among some binders
FYI, pKd means -log10 of a concentration in mol per litre.

Ab4 (antibody, V domains shown) VH: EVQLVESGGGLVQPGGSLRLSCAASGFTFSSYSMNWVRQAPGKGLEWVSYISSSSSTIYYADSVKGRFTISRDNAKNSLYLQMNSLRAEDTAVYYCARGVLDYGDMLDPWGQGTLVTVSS VL: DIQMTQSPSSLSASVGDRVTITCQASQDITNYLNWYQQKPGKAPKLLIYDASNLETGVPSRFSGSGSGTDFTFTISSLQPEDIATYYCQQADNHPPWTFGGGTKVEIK :: 8.60

Lab book: pKd of Ab29 (antibody, V domains shown) VH: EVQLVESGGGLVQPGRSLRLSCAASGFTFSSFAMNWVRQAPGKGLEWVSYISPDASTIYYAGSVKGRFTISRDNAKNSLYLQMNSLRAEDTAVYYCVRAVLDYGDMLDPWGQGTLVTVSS VL: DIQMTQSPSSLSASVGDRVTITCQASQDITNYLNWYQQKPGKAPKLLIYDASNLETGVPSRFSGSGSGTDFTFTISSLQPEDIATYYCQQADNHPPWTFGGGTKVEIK noted as 11.26
